biological target: human adenosine A2A receptor (Homo sapiens, UniProt P29274); construct: expressed in transfected cells; host or cells: CHO cells, semliki forest virus expression system; membranes used; experiment: Human adenosine A2A receptor [3H]-SCH-58261 binding assay; details: recombinant receptor expressed in CHO cells, [3H]-SCH-58261 1 nM, SPA; read-out: hA2A (converted)
Sequence (P29274 whole entry): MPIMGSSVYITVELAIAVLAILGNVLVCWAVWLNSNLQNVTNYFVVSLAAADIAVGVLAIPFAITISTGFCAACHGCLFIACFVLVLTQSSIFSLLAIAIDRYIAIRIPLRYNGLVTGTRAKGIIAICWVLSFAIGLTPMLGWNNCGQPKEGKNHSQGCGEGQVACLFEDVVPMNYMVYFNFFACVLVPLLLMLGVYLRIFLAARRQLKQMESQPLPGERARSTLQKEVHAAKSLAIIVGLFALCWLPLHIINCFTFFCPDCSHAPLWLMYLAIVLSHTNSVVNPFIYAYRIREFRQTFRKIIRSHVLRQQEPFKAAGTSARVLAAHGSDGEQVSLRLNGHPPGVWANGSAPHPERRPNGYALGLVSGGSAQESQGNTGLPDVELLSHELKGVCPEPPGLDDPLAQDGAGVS
The following compounds are shown together with reported Ki values.
// units = nM; emit number, no label

Input line: Param item = `COc1cc(C(=O)Nc2nc3c(OC)cnc(N4CCOCC4)c3s2)ccn1` ; retrieve measured Ki.
Output line: 12.9

Input line: I'd like to know its Ki. The compound in question is `COc1cnc(N2CCOCC2)c2sc(NC(=O)N3CCC(C)(CO)CC3)nc12`
Output line: 11.7

Now look at this one.
Input line: What measured Ki goes with `COc1cnc(N2CCOCC2)c2sc(NC(=O)c3ccc4c(c3)OCO4)nc12` ?
Output line: 7.24

----------
Molecular target: human adenosine A1 receptor (Homo sapiens, UniProt P30542)
Construct: expressed in transfected cells; host or cells: CHO cells, semliki forest virus expression system; membranes used
Sequence (P30542 1-326): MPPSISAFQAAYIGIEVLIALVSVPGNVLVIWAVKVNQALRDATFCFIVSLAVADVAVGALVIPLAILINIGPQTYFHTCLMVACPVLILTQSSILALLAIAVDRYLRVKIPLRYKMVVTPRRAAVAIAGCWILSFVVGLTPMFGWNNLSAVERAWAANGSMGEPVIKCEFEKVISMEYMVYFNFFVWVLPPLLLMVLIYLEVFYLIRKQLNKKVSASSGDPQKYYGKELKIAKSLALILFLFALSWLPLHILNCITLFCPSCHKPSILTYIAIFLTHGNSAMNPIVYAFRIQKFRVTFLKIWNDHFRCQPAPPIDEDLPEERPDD
Experiment: Human adenosine A1 receptor [3H]-DPCPX binding assay
Settings: recombinant receptor expressed in CHO cells, [3H]-DPCPX 0.6 nM, SPA; read-out: hA1 (converted)
Item-by-item account of Ki
Use µM as the unit, but write only the number.

Observe how each entry below is paired with its result.
Input line: GET /values?readout=Ki&item= `COc1cnc(N2CCOCC2)c2sc(NC(=O)N3CCC(C)(CO)CC3)nc12`
Output line: 7.08

Input line: Suppose we examine the compound `COc1cnc(N2CCOCC2)c2sc(NC(=O)c3ccnc(N4CC(OC)C4)c3)nc12` ; what Ki value has been reported?
Output line: 1.91

Input line: Using the record for `COc1cnc(N2CCOCC2)c2sc(NC(=O)c3ccc(F)cc3)nc12` , report its Ki.
Output line: 1.78

Continue with the compound presented below.
Input line: Please report the recorded Ki for `COc1cnc(N2CCOCC2)c2sc(NC(=O)CC3CCOCC3)nc12` .
Output line: 5.01

----------
molecular target: human adenosine A2A receptor (Homo sapiens); construct: expressed in transfected cells; host or cells: CHO cells, semliki forest virus expression system; membranes used; experiment: Human adenosine A2A receptor [3H]-SCH-58261 binding assay; details: hA2A versus hA1
Label Y when Selectivity is strictly below 500; at or above that, label N.

Solved entries (count: 5):
Input line: Strictly below 500: is that where Selectivity of COc1cnc(N2CCOCC2)c2sc(NC(=O)N3CCC(CO)CC3)nc12 [Example 36] sits?
Output line: Y

Input line: Threshold test, Selectivity < 500: COc1ccc(C(=O)Nc2nc3c(OC)cnc(N4CCOCC4)c3s2)cc1OC [Example 8]
Output line: N

Input line: Field: below-cutoff. Rule: recorded Selectivity strictly less than 500. Subject: COc1cnc(N2CCOCC2)c2sc(NC(=O)c3ccc(N4CCOCC4)cc3)nc12 [Example 29]
Output line: N

Input line: Field: below-cutoff. Rule: recorded Selectivity strictly less than 500. Subject: COc1ccc(C(=O)Nc2nc3c(OC)cnc(N4CCOCC4)c3s2)cc1 [Example 3]
Output line: Y

Input line: Selectivity under 500? Item: COc1cnc(N2CCOCC2)c2sc(NC(=O)c3ccnc(N4CC(OC)C4)c3)nc12 [Example 19]
Output line: Y

Next:
Input line: Given the entry COc1cnc(N2CCOCC2)c2sc(NC(=O)N3CCC4(CCCO4)CC3)nc12 [Example 40] , would its reported Selectivity be below 500?
Output line: Y

Input line: Threshold test, Selectivity < 500: COc1cnc(N2CCOCC2)c2sc(NC(=O)CC3CCOCC3)nc12 [Example 11]
Output line: Y
